# Target or test system: T1, cyno FcRn/b2M (cyno, UniProt Q8SPV9 24-297; Q8SPW0 21-119, biotinylated)
# T1 construct: bought recombinant biotinylated protein (Immunitrack ITF05 or ACRO FCM-C82W5); also called cFcRn; cFcRn/cb2M
# T1 sequence (Q8SPV9 24-297 limits assumed, chain 1 of 2): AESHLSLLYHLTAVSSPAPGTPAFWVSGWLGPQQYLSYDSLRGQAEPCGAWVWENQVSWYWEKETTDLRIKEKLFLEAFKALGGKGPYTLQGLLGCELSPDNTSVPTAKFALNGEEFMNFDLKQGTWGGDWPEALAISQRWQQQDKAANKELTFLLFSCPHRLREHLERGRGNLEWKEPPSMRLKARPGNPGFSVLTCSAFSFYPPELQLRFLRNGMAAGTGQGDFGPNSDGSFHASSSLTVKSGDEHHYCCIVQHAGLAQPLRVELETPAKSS
# T1 sequence (Q8SPW0 21-119 limits assumed, chain 2 of 2): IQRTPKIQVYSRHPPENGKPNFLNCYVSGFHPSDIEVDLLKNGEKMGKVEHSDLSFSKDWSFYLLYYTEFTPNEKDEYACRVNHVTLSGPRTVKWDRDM
# Assay remarks: SPR pH 6.0;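 further: surface plasmon resonance kinetics at 25 °C, diluted periplasmic extracts injected over immobilized ligand surfaces, 120 s association then 600–3600 s dissociation, running buffer containing 150 mM NaCl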
Measured attribute: koff (s⁻¹)
One number for each entry, in s⁻¹.

T0263018B11 S52E (VHH, name in Kabat numbering, FLAG3-His6 tagged) VHH: EVQLVESGGGVVQPGGSLRLSCAASGFTFSSYAMYWVRQAPGKGLEWVSAIESGGGSTDYADSVKGRFTISRDNSKNTLYLQMNSLRPEDTALYYCAADTLYTSLTWYSYWGQGTLVTVSS: 0.0023
T0263018B11 G54L (VHH, name in Kabat numbering, FLAG3-His6 tagged) VHH: EVQLVESGGGVVQPGGSLRLSCAASGFTFSSYAMYWVRQAPGKGLEWVSAISSGLGSTDYADSVKGRFTISRDNSKNTLYLQMNSLRPEDTALYYCAADTLYTSLTWYSYWGQGTLVTVSS: 0.0017
T0263018B11 S101T (VHH, name in Kabat numbering, FLAG3-His6 tagged) VHH: EVQLVESGGGVVQPGGSLRLSCAASGFTFSSYAMYWVRQAPGKGLEWVSAISSGGGSTDYADSVKGRFTISRDNSKNTLYLQMNSLRPEDTALYYCAADTLYTSLTWYTYWGQGTLVTVSS: 0.00036

For the binder shown here, T0263018B11 S52aT (VHH, name in Kabat numbering, FLAG3-His6 tagged) VHH: EVQLVESGGGVVQPGGSLRLSCAASGFTFSSYAMYWVRQAPGKGLEWVSAISTGGGSTDYADSVKGRFTISRDNSKNTLYLQMNSLRPEDTALYYCAADTLYTSLTWYSYWGQGTLVTVSS , give the reported koff.
0.0012
